Field Ki: reported value for UniProtKB P00800; entries drawn from several documents.

[
  {
    "Compound": "CC(C)CC(NC(=O)CNC(=O)OCc1ccccc1)C(=O)N(C)O (stereo not drawn)",
    "Ki": "2240 µM"
  },
  {
    "Compound": "CC(C)C[C@H](NP(=O)(O)CNC(=O)OCc1ccccc1)C(=O)N[C@H](C(=O)O)C(C)C",
    "Ki": "0.0058 µM"
  },
  {
    "Compound": "CNC(=O)[C@H](C)NP(=O)(O)CNC(=O)OCc1ccccc1",
    "Ki": "185 µM"
  },
  {
    "Compound": "CC(C)C[C@H](NP(=O)(O)CNC(=O)OCc1ccccc1)C(=O)N[C@@H](CC(C)(C)C)C(=O)O",
    "Ki": "0.04 µM"
  },
  {
    "Compound": "CC(C)CC(OP(=O)(O)CNC(=O)OCc1ccccc1)C(=O)NC(C)C(=O)O (stereo not drawn)",
    "Ki": "12.9 µM"
  },
  {
    "Compound": "CC(C)C[C@@H](C(=O)N[C@@H](C)C(=O)NCC(N)=O)N(O)C=O",
    "Ki": "3390 µM"
  },
  {
    "Compound": "C[C@H](NC(=O)[C@@H](CS)Cc1ccccc1)C(=O)NCC(N)=O",
    "Ki": "0.759 µM"
  },
  {
    "Compound": "CC(C)CC(NC(CCNC(=O)C(Cc1ccccc1)NC(=O)OCc1ccccc1)C(=O)O)C(=O)NC(Cc1c[nH]c2ccccc12)C(=O)O (stereo not drawn)",
    "Ki": "0.011 µM"
  },
  {
    "Compound": "COC(=O)C(/C=[N+](\\[O-])Cc1ccccc1)Cc1ccccc1 (stereo not drawn)",
    "Ki": "82 µM"
  },
  {
    "Compound": "CC(C)C[C@H](NP(=O)(O)CNC(=O)OCc1ccccc1)C(=O)N[C@H](C(=O)O)C(C)(C)C",
    "Ki": "0.031 µM"
  },
  {
    "Compound": "CC(C)CCNC(=O)[C@H](C)NP(=O)(O)CNC(=O)OCc1ccccc1",
    "Ki": "19.5 µM"
  },
  {
    "Compound": "NC(=O)[C@H](Cc1ccccc1)C[N+](=O)[O-]",
    "Ki": "7.6 µM"
  },
  {
    "Compound": "CC(C)C[C@H](C(=O)NO)C(=O)N[C@@H](C)C(=O)NCC(N)=O",
    "Ki": "0.479 µM"
  },
  {
    "Compound": "CC(C)CC(NC(=O)C(CC(C)C)NP(=O)(O)CNC(=O)OCc1ccccc1)C(=O)O (stereo not drawn)",
    "Ki": "0.00912 µM"
  },
  {
    "Compound": "CC(C)CC(NC(=O)NNC(=O)OCc1ccccc1)C(N)=O (stereo not drawn)",
    "Ki": "380 µM"
  },
  {
    "Compound": "CC(C)C[C@H](C[Si](O)(O)CNC(=O)CCc1ccccc1)C(=O)N[C@@H](CC(C)C)C(=O)O",
    "Ki": "0.041 µM"
  },
  {
    "Compound": "CC[C@H](NC(=O)[C@H](C)NP(=O)(O)CNC(=O)OCc1ccccc1)C(=O)O",
    "Ki": "1.37 µM"
  },
  {
    "Compound": "CCCC[C@H](NC(=O)[C@H](CC(C)C)NP(=O)(O)CNC(=O)OCc1ccccc1)C(=O)O",
    "Ki": "0.0053 µM"
  },
  {
    "Compound": "CC(C)C[C@H](NC(=O)[C@H](CC(C)C)NC(=O)CN(C(=O)OCc1ccccc1)P(=O)(O)O)C(=O)O",
    "Ki": "0.0091 µM"
  },
  {
    "Compound": "COC(=O)C(CC(C)C)N(O)C(=O)CCl (stereo not drawn)",
    "Ki": "7500 µM"
  },
  {
    "Compound": "CC(C)CC(CP(=O)(O)CNC(=O)OCc1ccccc1)C(=O)NC(Cc1ccccc1)C(=O)O (stereo not drawn)",
    "Ki": "0.0661 µM"
  },
  {
    "Compound": "C[C@H](NP(=O)(O)CNC(=O)OCc1ccccc1)C(=O)NCCc1ccccc1",
    "Ki": "45.2 µM"
  },
  {
    "Compound": "CC(C)CC(NC(CCNC(=O)C(Cc1ccccc1)NC(=O)OCc1ccccc1)C(=O)O)C(=O)NC(Cc1ccccc1)C(=O)O (stereo not drawn)",
    "Ki": "0.219 µM"
  },
  {
    "Compound": "CC(C)C[C@H](NC(=O)[C@H](C)NP(=O)(O)CNC(=O)OCc1ccccc1)C(=O)O",
    "Ki": "5.92 µM"
  },
  {
    "Compound": "CCC[C@H](NP(=O)(O)CNC(=O)OCc1ccccc1)C(=O)N[C@@H](CC(C)C)C(=O)O",
    "Ki": "0.029 µM"
  },
  {
    "Compound": "CC(C)CC(NP(=O)(O)CNC(=O)OCc1ccccc1)C(=O)NCC(=O)O (stereo not drawn)",
    "Ki": "0.269 µM"
  },
  {
    "Compound": "CC(C)CC(NP(=O)(O)C(Cc1ccccc1)NC(=O)OCc1ccccc1)C(=O)NC(C)C(=O)O (stereo not drawn)",
    "Ki": "6.76e-05 µM"
  },
  {
    "Compound": "CC(C)CC(CP(=O)(O)CNC(=O)OCc1ccccc1)C(N)=O (stereo not drawn)",
    "Ki": "1.41 µM"
  },
  {
    "Compound": "CC(C)C[C@H](NC(CCc1ccccc1)C(=O)O)C(=O)N[C@@H](Cc1c[nH]c2ccccc12)C(=O)O (stereo partly drawn)",
    "Ki": "0.0339 µM"
  },
  {
    "Compound": "CC(C)CC(NC(CCc1ccccc1)C(=O)O)C(=O)NC(Cc1ccccc1)C(=O)O (stereo not drawn)",
    "Ki": "0.603 µM"
  },
  {
    "Compound": "CC(C)CC(CP(=O)(O)CNC(=O)OCc1ccccc1)C(=O)NCC(=O)O (stereo not drawn)",
    "Ki": "0.302 µM"
  },
  {
    "Compound": "O=C(NC(Cc1ccccc1)C(=O)O)OCc1ccccc1 (stereo not drawn)",
    "Ki": "513 µM"
  },
  {
    "Compound": "CC(C)CC(NC(=O)C(CC(C)C)OP(=O)(O)CNC(=O)OCc1ccccc1)C(=O)O (stereo not drawn)",
    "Ki": "8.91 µM"
  },
  {
    "Compound": "O=C(O)CNC(=O)C(/C=[N+](\\[O-])Cc1ccccc1)Cc1ccccc1 (stereo not drawn)",
    "Ki": "54 µM"
  },
  {
    "Compound": "CCCCNC(=O)[C@H](CC(C)C)NP(=O)(O)CNC(=O)OCc1ccccc1",
    "Ki": "0.067 µM"
  },
  {
    "Compound": "NC(=O)C(/C=[N+](\\[O-])Cc1ccccc1)Cc1ccccc1 (stereo not drawn)",
    "Ki": "40 µM"
  },
  {
    "Compound": "CC(C)C[C@H](NP(=O)(O)CNC(=O)OCc1ccccc1)C(=O)N[C@@H](Cc1ccccc1)C(=O)O",
    "Ki": "0.054 µM"
  },
  {
    "Compound": "CC(C)C[C@H](NP(=O)(O)CNC(=O)OCc1ccccc1)C(=O)N[C@@H](Cc1cccs1)C(=O)O",
    "Ki": "0.024 µM"
  }
]
